Conditions: in ethanol, 288.15 K
readout.kind: solubility (mole fraction)

Query: Tell us which solubility (mole fraction) value is on record for NC(=O)c1ccccc1
Response: 0.0479

These data points were gathered from BigSolDB 2.1.
